- assay_method_text: SK-BR-3 proliferation inhibitors, primary screen, cell-based, human, 24 h (AID 847);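 further: 100% = median untreated cell wells and 0% = median positive control drug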
- stated_conditions: SK-BR-3 viability, CellTiter-Glo ATP luminescence, at 10 µM, stronger effect = lower value
The campaign covered roughly 41,000 compounds. About 190 (0.46%) were called active. The list comes from a sample in which actives are over-represented; it also holds close analogues and randomly drawn compounds.
Please provide measured viability for the entries that follow.

Sample CC(C)NS(=O)(=O)c1ccc(OCC(=O)Nc2ccc3c(c2)OCCO3)cc1 ; viability observed: 86.3% (inactive)

Sample CCCN1C(=O)C(NC(C)=O)c2cc(OC)ccc21 (stereo unspecified) ; viability observed: 88.1% (inactive)

Sample Cc1cc(C)c2cc(CN(Cc3cccs3)Cc3nnnn3CC3CCCO3)c(=O)[nH]c2c1 (stereo unspecified) ; viability observed: 83.1% (inactive)

Sample CCCC(C)n1[nH]c(=O)c2c(C)cc(C)nc21 (stereo unspecified) ; viability observed: 87% (inactive)

Sample C[C@H](NC(=O)OC(C)(C)C)c1nnc(SCC(=O)Nc2ccc(Br)cc2)o1 ; viability observed: 91.1% (inactive)

Sample c1ccc(-c2nnc(SCc3nc4ccccc4[nH]3)o2)cc1 ; viability observed: 70.7% (inactive)

* * *

- assay_method_text: SK-BR-3 proliferation inhibitors, primary screen, cell-based, human, 24 h (AID 847);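 further: 100% = median untreated cell wells and 0% = median positive control drug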
- stated_conditions: SK-BR-3 viability, CellTiter-Glo ATP luminescence, at 10 µM, stronger effect = lower value
Among all 41,000 compounds or so, about 190 (0.46%) were called active. For the sample, actives were picked, then their nearest neighbours and some compounds at random.
observable: viability (%)
// return numeric value only (unit: %, not printed)

Sample CSc1nc(O)c(Cc2ccccc2)c(=O)[nH]1 ; viability observed: 88.2

Sample Cc1ccc2c(c1)c1ncn(CCC3=CCCCC3)c(=O)c1n2C ; viability observed: 85.3

Sample COC(=O)c1ccccc1NC(=O)CSc1ccccn1 ; viability observed: 81.2

Sample COC(=O)c1cn(CC(=O)NCc2cccs2)c2ccccc12 ; viability observed: 108

Sample COC(=O)Nc1c(C)n(C)n(-c2ccccc2)c1=O ; viability observed: 104

Sample CC1(C)NC(=O)N(CCOc2cccc(Oc3ccccc3)c2)C1=O ; viability observed: 94.6

Sample CCCc1[nH]nc2c1C(C1CC=CCC1)C(C#N)=C(N)O2 (stereo not drawn) ; viability observed: 96.8

Sample C=CCNC(=O)c1ccc(C)c(Br)c1 ; viability observed: 74.5

Sample CCOC(=O)c1cnc(-n2nc(C)cc2C)nc1-n1nc(C)cc1C ; viability observed: 108

Sample CCCCOc1ccc(NC(=O)CSCC(=O)OCC)cc1 ; viability observed: 97.7

Sample CC(=O)CCS(=O)(=O)c1ccc(C)c(C)c1 ; viability observed: 73.8

Sample CC(=O)N1CCC(C(=O)Nc2nc(-c3ccccc3)ns2)CC1 ; viability observed: 96.3

Sample Cc1cc(NC(=O)CCC2COc3ccccc3O2)no1 (stereo not drawn) ; viability observed: 94.5

Sample COc1ccccc1-n1nnnc1S(=O)(=O)Cc1ccc(Cl)cc1 ; viability observed: 95.1

Sample Fc1ccc(OCc2nn3c(Cn4nnc5ccccc54)nnc3s2)cc1 ; viability observed: 59.8

Sample CCCCNc1nc2c(c(=O)[nH]c(=O)n2C)n1CCOc1ccccc1 ; viability observed: 114

Sample Cc1nc(N2CCCC2C(=O)O)c2oc3ccccc3c2n1 (stereo not drawn) ; viability observed: 101

Sample O=S(=O)(NCCNS(=O)(=O)c1ccccc1)c1ccccc1 ; viability observed: 87.2

Sample FC(F)(F)c1cccc(Nc2ncnc3ccccc23)c1 ; viability observed: 90.1

Sample CCCc1nnc(NC(=O)c2cc(OC)cc(OC)c2)s1 ; viability observed: 81.5

Sample CCOC(=O)N1CCN(C(=O)CN(c2ccc(C)c(C)c2)S(=O)(=O)c2ccccc2)CC1 ; viability observed: 124

Sample O=C(Nc1nn(Cc2ccccc2F)cc1Br)c1cccs1 ; viability observed: 98.6

Sample O=C(CCCC(=O)N(CC(=O)NC1CCCC1)Cc1ccccc1Cl)Nc1ccccn1 ; viability observed: 73.7

Sample COc1ccc(C(=O)N2CCC(C(=O)Nc3cccc(C)c3)CC2)cc1OC ; viability observed: 106

Sample NC(=O)C1CCN(C2OC(=O)c3ccccc32)CC1 (stereo not drawn) ; viability observed: 93.2

Sample CCOC(=O)c1nc(N)sc1C(=O)OCC ; viability observed: 82.9

Sample Cc1ccc(C)c(NC(=O)C2CCCN2C(=O)OC(C)(C)C)c1 (stereo not drawn) ; viability observed: 102

Sample CC(C)C(NC(=O)c1cccc(S(=O)(=O)N2CCOCC2)c1)C(=O)NCCc1ccccn1 (stereo not drawn) ; viability observed: 84.8

Sample CCS(=O)(=O)n1nc(-c2ccc(OC)cc2)nc1SC ; viability observed: 101

Sample COc1cc(C(=O)Nc2nccs2)cc(OC)c1OC ; viability observed: 98.8

Sample COc1ccc(Br)cc1/C=N/n1c(C)nnc1C ; viability observed: 96.9

Sample COc1ccc(N2CCN(CCNC(=O)c3nnc(Cc4c(F)cccc4Cl)o3)CC2)cc1 ; viability observed: 75

Sample CSc1nsc(SC)c1NC(=O)OC1CCCCC1 ; viability observed: 106

Sample COCCCNC(=O)COc1cc(C)c(Cl)c(C)c1 ; viability observed: 104

Sample Cc1ccc2nc(NC3=NCN(CCc4ccccc4)CN3)nc(C)c2c1 ; viability observed: 95.4

Sample COc1ccc(C2CC(c3ccc(C)cc3)Nc3nc(N)nn32)cc1 (stereo not drawn) ; viability observed: 102

Sample O=C(Nc1ccc2c(c1)nc1n2CCCCC1)c1cc(S(=O)(=O)N2CCOCC2)ccc1Cl ; viability observed: 69

Sample O=C1Nc2ccccc2C12Nc1ccccc1S2 (stereo not drawn) ; viability observed: 75.9

Sample Cc1ccc(NC(=O)Cn2nc(C)c3ccccc3c2=O)c(C)c1 ; viability observed: 112

Sample C=CCn1c(CSc2nc3ccccc3s2)nnc1SCC(=O)NCc1ccco1 ; viability observed: 125

Sample COc1ccccc1N1CCN(C(=O)c2ccc(S(=O)(=O)N3CCCCC3)cc2)CC1 ; viability observed: 123

Sample CCOC(=O)c1ccccc1NC(=O)CC1Nc2ccccc2NC1=O (stereo not drawn) ; viability observed: 47.2

Sample Cc1cc(N2CCN(Cc3ccc4c(c3)OCO4)CC2)n2ncnc2n1 ; viability observed: 88.1

Sample O=C(NCc1cccnc1)c1cn(-c2ccccc2)nc1-c1cccs1 ; viability observed: 74.3

Sample C=CCC(NCCCO)c1cccc(OC)c1OC (stereo not drawn) ; viability observed: 107

Sample COc1ccc(CSc2nc(N3CCOCC3)c3c(c2C#N)CC(C)(C)OC3)cc1 ; viability observed: 76.6

Sample C=CCSC1=C(C#N)C(c2cc(Br)c(O)c(OC)c2)CC(=O)N1 (stereo not drawn) ; viability observed: 86.3

Sample COC(=O)COc1ccc2oc(=O)cc(C)c2c1 ; viability observed: 87

Hello, the source for this data is PubChem BioAssay AID847, in case you need it.
